B1: library; numbered along this chain (parent)
chain: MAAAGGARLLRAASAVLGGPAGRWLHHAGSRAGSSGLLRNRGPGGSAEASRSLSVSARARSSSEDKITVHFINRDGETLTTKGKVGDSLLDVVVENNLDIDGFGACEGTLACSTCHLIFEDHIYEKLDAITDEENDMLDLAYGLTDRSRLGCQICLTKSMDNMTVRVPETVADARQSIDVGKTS

# Variants of: B1
# experimentalDetails: scaled log2 fold change in cell abundance, elesclomol vs control (0 = silent mean, 1 = nonsense mean) (scaled log2 ratio); higher = higher viability under elesclomol (loss of FDX1 cuproptosis function);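 also: variant abundance is its share of total variant reads in each endpoint sample, from next-generation sequencing of the integrated ORF PCR-amplified out of genomic DNA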
# assayContext: with HEK293T FDX1 KO; elesclomol 40 nM; glucose 10 mM; 11 days

{"columns": ["variantString", "scaled log2 fold change"],
 "data": [
  ["D87H", 0.121],
  ["L89N", 0.434],
  ["E134A", 0.137],
  ["V93R", 0.16],
  ["A15R", -0.519],
  ["Y142D", 1.12],
  ["S56L", 1.06],
  ["R175T", 0.313],
  ["T78Q", -0.00407],
  ["A47W", 0.727],
  ["E48K", 0.746],
  ["D128W", -0.406],
  ["T131Q", 0.928],
  ["G6S", -0.676],
  ["I123E", -0.217],
  ["E134H", 0.225],
  ["I178H", 0.244],
  ["T68R", -0.377],
  ["L9S", -0.659],
  ["V165R", 1.45],
  ["A12T", -0.247],
  ["H122T", 0.139]
]}
